Catalogue of pKd readings, one per entry.
- Assayed System: T1, recombinant YFV E protein (soluble E, sE; YFV Asibi strain) (Yellow fever virus, Asibi strain, UniProt Q6DV88 286-678)
- T1 construct: also called YFV E antigen; YFV E monomer
- T1 sequence (Q6DV88 286-678): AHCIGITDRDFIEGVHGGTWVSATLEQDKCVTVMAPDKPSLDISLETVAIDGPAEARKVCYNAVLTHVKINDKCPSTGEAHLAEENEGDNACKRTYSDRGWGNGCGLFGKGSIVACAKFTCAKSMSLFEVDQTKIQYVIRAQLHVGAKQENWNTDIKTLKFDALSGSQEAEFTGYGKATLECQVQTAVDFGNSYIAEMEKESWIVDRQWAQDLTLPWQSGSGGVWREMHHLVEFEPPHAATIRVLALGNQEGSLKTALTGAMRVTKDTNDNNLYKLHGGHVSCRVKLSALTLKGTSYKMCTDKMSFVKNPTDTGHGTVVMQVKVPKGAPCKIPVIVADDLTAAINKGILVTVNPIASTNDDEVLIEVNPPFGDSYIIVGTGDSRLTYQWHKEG
- Assay Explanation: BLI monovalent (IgG on tip)
pKd: −log10 of the molar value.

Enquiry: Find the recorded pKd belonging to ADI-50534 (antibody, V domains shown, full-length IgG) VH: EVQLQESGPGLVKPSETLSLTCTVSGGSISSSSYYWGWIRQPPGKGLEWIGSIYYSGSTYYNPSLKSRVTISVDTSKNQFSLKLSSVTAADTAVYYCARHSSGSYYLAGYYFDYWGQGTLVTVSS VL: NFMLTQPHSVSESPGKTVTISCTRSSGSIASNYVQWYQQRPGSAPTTVIYEDNQRPSGVPDRFSGSIDSSSNSASLTISGLKTEDEADYYCQSYDSSNWVFGGGTKLTVL and report it.
Return: < 7.00

Enquiry: Find the recorded pKd belonging to ADI-50218 (antibody, V domains shown, full-length IgG; also called Antibody Number 128) VH: QVQLVQSGAEVKKPGASVKVSCKASGYTFTSYDINWVRQATGQGLEWMGWMNPNSGNTGYAQKFQGRVTMTRNTSISTAYMELSSLRSEDTAVYYCARGLNTVTNSDYWGQGTLVTVSS VL: DIQLTQSPSSVSASVGDRVTITCRASQGISSWLAWYQQKPGKAPKLLIYAASSLQSGVPSRFSGSGSGTDFTLTISSLQPEDFATYYCQQANSFPWTFGQGTKVDIK and report it.
Return: < 7.00

API: the following record is the query input.
Enquiry: Find the recorded pKd belonging to ADI-45161 (antibody, V domains shown, full-length IgG; also called Antibody Number 92) VH: QVQLQESGGGVVQPGRSLRLSCAASGFTFSSYGMHWVRQAPGKGLEWVAVIWYDGSNKYYADSVKGRFTISRDNSKNTLYLQMNSLRAEDTAVYYCARDVGYQLLQVYGMDVWGQGTTVTVSS VL: QSALTQPASVSGSPGQSITISCTGTSSDVGGYNYVSWYQQHPGKAPKLMIYEVSNRPSGVSNRFSGSKSGNTASLTISGLQAEDEADYYCSSYTSSSTLDVVFGGGTKLTVL and report it.
Return: < 7.00
